Biological target: T1, MRB1590(10-668) (Trypanosoma brucei, UniProt UPI00067E648B 10-668)
T1 sequence: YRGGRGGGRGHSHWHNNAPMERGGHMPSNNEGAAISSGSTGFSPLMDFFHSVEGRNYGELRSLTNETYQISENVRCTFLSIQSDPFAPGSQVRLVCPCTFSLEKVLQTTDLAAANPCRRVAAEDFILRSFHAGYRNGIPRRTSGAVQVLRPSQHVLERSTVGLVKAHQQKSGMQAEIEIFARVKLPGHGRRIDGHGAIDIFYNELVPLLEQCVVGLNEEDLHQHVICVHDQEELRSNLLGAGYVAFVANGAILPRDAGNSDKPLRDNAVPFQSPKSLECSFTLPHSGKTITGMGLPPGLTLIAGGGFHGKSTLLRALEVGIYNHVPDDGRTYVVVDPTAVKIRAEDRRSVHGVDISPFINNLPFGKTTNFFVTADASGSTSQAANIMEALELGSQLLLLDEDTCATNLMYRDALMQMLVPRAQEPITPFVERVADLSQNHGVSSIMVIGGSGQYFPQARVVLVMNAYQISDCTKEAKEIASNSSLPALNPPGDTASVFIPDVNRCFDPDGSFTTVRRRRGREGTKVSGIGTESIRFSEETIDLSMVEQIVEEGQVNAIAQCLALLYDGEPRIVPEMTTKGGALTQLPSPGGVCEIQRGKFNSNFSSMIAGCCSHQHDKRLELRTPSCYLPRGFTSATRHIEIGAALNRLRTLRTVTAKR
Assay: fluorescence polarization; ADP, Mg2+; 1 RNA : 2 subunits; FP: 20 mM Tris-HCl pH 7.5, 150 mM NaCl, 5% glycerol, 1 mM MgCl2, 2 mM ADP or AMP-PNP, 1 nM 3'-fluoresceinated RNA (heated to 99 C, slow cooled), 25 C
Conditions: protein: recombinant; chain copies: 2; label: 3' fluorescein
pKd: −log10 of the molar value.
RECORDED_METRIC: pKd

[[record]]
binder = "AGGCGGGCGGGCGACGGCGGU (ssRNA) [GC-rich sequence RNA (A6 pause site, 21 mer)]"
recorded_metric = "pKd"
recorded_measurement = 8.66

